test: AM_Perm (artificial membrane permeability); type: in vitro ADME
Property: log10 AM Perm; scope: individual compounds
ENDPOINT LABEL: log10 AM Perm (log10 of the value in ×10⁻⁶ cm/s)

compound="CCn1cc(-c2ccncn2)c(-c2cccc(NS(=O)(=O)c3cc(F)ccc3F)c2)n1 [Compound 2]" endpoint_value=1.70
compound="COc1ccc(CCNC(=O)CSc2ncnc3[nH]ncc23)cc1OC [Compound 8]" endpoint_value=0.85
compound="CNS(=O)(=O)c1cccc(Nc2ccnc(Nc3cccc(S(=O)(=O)NC)c3)n2)c1 [Compound 6]" endpoint_value=1.10
compound="Nc1nc(Nc2cccc3cnccc23)nn1C(=O)C1CCCCC1 [Compound 16]" endpoint_value=1.53
compound="CCn1c(-c2nonc2N)nc2c(-c3ccccc3)ncc(CN(C)C3CCN(C)CC3)c21 [Compound 5]" endpoint_value=1.36
compound="Cc1ccc(S(C)(=O)=O)cc1Nc1nccc(-c2sc(CC(N)=O)nc2-c2ccccc2)n1 [Compound 3]" endpoint_value=1.56
compound="CNCCOc1cnc(-c2ccoc2C)c(-c2ccc3cnccc3c2)c1 [Compound 13]" endpoint_value=1.63
compound="NCCNCc1ccc(-c2cc3ccncc3cc2OC2CCNCC2)s1 [Compound 12]" endpoint_value=0.08
compound="O=C(N[C@@H](CO)c1ccccc1)c1ccc2cncc(-c3cn[nH]c3)c2n1 [Compound 11]" endpoint_value=0.93
